Origin of the recorded values: patent US10292985B2

- MEASURED TARGET: HIS-TGFβR1 T204D (Homo sapiens (Human), UniProt P36897, T204D)
- Sequence (P36897 34-503 T204D): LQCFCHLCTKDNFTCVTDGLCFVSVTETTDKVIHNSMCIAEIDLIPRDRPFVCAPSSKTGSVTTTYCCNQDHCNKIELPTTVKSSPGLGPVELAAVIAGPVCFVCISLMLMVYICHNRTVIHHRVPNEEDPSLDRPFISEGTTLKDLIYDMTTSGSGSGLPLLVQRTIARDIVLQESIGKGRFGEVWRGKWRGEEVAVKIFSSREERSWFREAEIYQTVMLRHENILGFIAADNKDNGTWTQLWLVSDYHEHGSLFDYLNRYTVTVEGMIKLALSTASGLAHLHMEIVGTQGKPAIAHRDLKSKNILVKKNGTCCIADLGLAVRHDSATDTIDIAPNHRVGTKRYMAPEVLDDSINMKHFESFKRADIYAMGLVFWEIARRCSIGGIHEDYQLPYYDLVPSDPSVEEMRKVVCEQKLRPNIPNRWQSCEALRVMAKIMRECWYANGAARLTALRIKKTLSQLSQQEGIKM
- PROTOCOL SUMMARY: HTRF probe-displacement assay, TGFβR1
- Type: binding
- CONDITION CONTEXT: HIS-TGFβR1 T204D, 1 nM; 1 hour at room temperature
pIC50: −log10 of the molar value.
MEASUREMENT TYPE: pIC50

CCc1cccc(-c2nc(-n3ccc4cnccc43)c3cccn3n2)n1 [Example 26] : 8.92
FC(F)(F)c1cccc(-c2nc(Nc3ccnc4cccnc34)c3cccn3n2)n1 [Example 2] : 7.70
Cc1ccc(-c2nc(-n3ccc4cnccc43)c3cccn3n2)nc1 [Example 34] : 7.92
Fc1cccc(-c2nc(-n3ccc4cnccc43)c3cccn3n2)n1 [Example 6] : 8.85
COc1ccc2c(Nc3nc(-c4cccc(C(F)(F)F)n4)nn4cccc34)ccnc2c1 [Example 20] : 8.38
COc1cccc(-c2nc(-n3ccc4cnccc43)c3c(Cl)ccn3n2)n1 [Example 24] : 8.00
Clc1cccc(-c2nc(-n3ccc4cnccc43)c3cccn3n2)n1 [Example 31] : 8.33
Cc1cccc(-c2nc(Nc3ccc4[nH]ncc4c3)c3cccn3n2)n1 [Example 36] : 8.82

[A] COc1cccc(-c2nc(-n3ncc4cnccc43)c3cccn3n2)n1 [Example 30]
[B] COc1cccc(-c2nc(-n3ccc4cnccc43)c3cccn3n2)n1 [Example 32]
Inquiry: Input pair: A , B . Output: entry with lower pIC50. Lab log: write the label of the selected item as the result.
Reply text: A
